// reported Fold change for each item listed
biological target: T1, human LAP-TGFB1 Fc fusion (human); test: BLI off-rate screen
T1 construct: also called human LAP-TGFβ1-Fc; human LAP-TGFβ-Fc isoform 1
T1 sequence (chain, as listed by the source limits assumed): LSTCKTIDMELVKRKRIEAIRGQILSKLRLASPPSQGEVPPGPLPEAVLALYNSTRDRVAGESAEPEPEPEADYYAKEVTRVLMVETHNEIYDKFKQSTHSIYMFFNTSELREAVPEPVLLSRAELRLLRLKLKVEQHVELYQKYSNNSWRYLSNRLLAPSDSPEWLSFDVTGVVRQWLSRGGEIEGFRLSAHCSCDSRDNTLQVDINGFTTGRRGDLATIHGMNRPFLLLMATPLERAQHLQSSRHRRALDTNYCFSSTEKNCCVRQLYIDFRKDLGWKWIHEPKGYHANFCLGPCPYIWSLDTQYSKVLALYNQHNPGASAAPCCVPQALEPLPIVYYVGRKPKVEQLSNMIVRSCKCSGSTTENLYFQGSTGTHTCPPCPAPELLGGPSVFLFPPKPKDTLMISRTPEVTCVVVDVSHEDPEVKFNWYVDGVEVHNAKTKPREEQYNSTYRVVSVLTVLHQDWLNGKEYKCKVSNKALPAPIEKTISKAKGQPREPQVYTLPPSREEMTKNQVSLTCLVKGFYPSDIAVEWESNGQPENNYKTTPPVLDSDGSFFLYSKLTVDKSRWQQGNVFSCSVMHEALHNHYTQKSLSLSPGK
OUTCOME_MEASURE: Fold change

>>> experimental_result("VH R50Y (75BIT) (Fab, V domains shown, also called VH RSOY (75BIT)) VH: EVQLVQSGAEVKKPGASVKVSCKASGYTFTSYWMHWVRQAPGQGLEWMGYIDPQSGGIKYAQKFQGRATLTVDTSTSTAYMELSRLRSDDTAVYYCARWDYGGYFDVWGQGTLVTVSS VL: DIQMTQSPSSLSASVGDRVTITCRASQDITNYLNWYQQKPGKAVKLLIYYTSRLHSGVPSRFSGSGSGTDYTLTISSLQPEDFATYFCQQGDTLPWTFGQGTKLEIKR")
"0.9 fold"
>>> experimental_result("VL N31Y (45BIT) (Fab, V domains shown) VH: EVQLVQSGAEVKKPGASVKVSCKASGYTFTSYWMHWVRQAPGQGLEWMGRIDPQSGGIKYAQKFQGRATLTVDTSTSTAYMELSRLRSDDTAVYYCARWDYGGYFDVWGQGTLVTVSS VL: DIQMTQSPSSLSASVGDRVTITCRASQDITYYLNWYQQKPGKAVKLLIYYTSRLHSGVPSRFSGSGSGTDYTLTISSLQPEDFATYFCQQGDTLPWTFGQGTKLEIKR")
"1.8 fold"
